Each recorded value in this set is attributed to PubChem BioAssay (NCI).

Test system: MCF7 breast
ASSAY_PROTOCOL: NCI-60 one-dose screen, 48 h (100 = growth as untreated, 0 = no growth, -100 = all killed)
EXPERIMENTAL_CONTEXT: 10 µM unless noted
Compounds without any hit were thinned out: in the full panel of roughly 83,000, 20% have a hit.
Each entry gets false if its growth stays under 50%, and true if its growth is 50% or above.

{"COMPOUND": "CC(=NNc1ncnc2ccccc12)c1ccc(S(C)(=O)=O)cc1", "LABEL": "true"}
{"COMPOUND": "Clc1ccc(Cc2nnc3sc(-c4cccnc4)nn23)cc1", "LABEL": "true"}
{"COMPOUND": "Cc1[nH]nc2ncc(C#Cc3cncc(C(=O)Nc4ccc(CN5CCN(C)CC5)c(C(F)(F)F)c4)c3)cc12", "LABEL": "false"}
{"COMPOUND": "CCN(CC)c1ccc(C=O)c(OCc2cn(CC(=O)Nc3ccc(Cl)cc3)nn2)c1", "LABEL": "true"}

Query block: API: above_or_equal(metric=growth, cutoff=50%) for item "COc1ccc(NC2=CC(=O)C(C)=C(C)C2=O)cc1"
Result block: true

Query block: COc1cc2nc(-c3ccc(C(F)(F)F)cc3)cc(OCCCNCC3CCCO3)c2cc1OC (centres undefined) ?
Result block: false

Query block: Then what about the compound "N#Cc1ccc(/C=N/NC(=O)c2[nH]c3ccc(Br)cc3c2-c2ccccc2)s1" ?
Result block: false

Query block: "O=C1/C(=C/C2=Cc3ccccc3OC2)SC(=S)N1c1ccc(F)cc1" ?
Result block: true

Query block: Likewise for O=C1C2=C(C(=O)c3c(O)cccc31)C(c1ccco1)c1sc(=O)[nH]c1S2 (centres undefined) ?
Result block: false

Query block: Input "COC(=O)c1ccc(NC(=S)N2CCc3ccc([N+](=O)[O-])cc3C2)cc1O"
Result block: true

Query block: Queued: "NS(=O)(=O)c1cccc(Nc2nc(SCC(=O)c3ccc(Br)cc3)nc3ccccc23)c1"
Result block: false

Query block: Input "N#Cc1c(-c2ccc(F)cc2)nc2c(C#N)c(Nc3ccccc3)nn2c1N"
Result block: true

Query block: And what about the compound "O=C(CN1CCOCC1)NNc1ncnc2ccccc12" ?
Result block: true
